B1: Limonene-1,2-epoxide hydrolase, Q9ZAG3 (parent)
chain: MTSKIEQPRWASKDSAAGAASTPDEKIVLEFMDALTSNDAAKLIEYFAEDTMYQNMPLPPAYGRDAVEQTLAGLFTVMSIDAVETFHIGSSNGLVYTERVDVLRALPTGKSYNLSILGVFQLTEGKITGWRDYFDLREFEEAVDLPLRG

- Variants of: B1
- experimental parameters: Rhodococcus erythropolis; pH 7.1; Thermal; Fluorescence; Potassium phosphate 50mM; transition: 2; reversible: no; structure 1NWW; whole UniProt chain shown
Classify as follows. Reported Tm greater than or equal to 50 °C: 1.0. Reported Tm below: 0.0.

- mutation spec: "V102C"
  assigned label: 1.0
- mutation spec: "I27M"
  assigned label: 0.0
- mutation spec: "A16R"
  assigned label: 0.0
- mutation spec: "A20P"
  assigned label: 0.0
- mutation spec: "M52C G129C"
  assigned label: 0.0
- mutation spec: "G89C S91C"
  assigned label: 1.0
- mutation spec: "D33K"
  assigned label: 0.0
- mutation spec: "Y96F"
  assigned label: 1.0
- mutation spec: "L122F"
  assigned label: 0.0
- mutation spec: "E124K"
  assigned label: 0.0
- mutation spec: "A105C V143C"
  assigned label: 0.0
- mutation spec: "K4C A82C"
  assigned label: 1.0
- mutation spec: "D33R"
  assigned label: 0.0
